Molecular target: Acetylcholinesterase (Homo sapiens)
Assay: Inhibition of human acetylcholinesterase using ATCI/DTNB as substrate preincubated for 30 mins followed by substrate addition measured for 60 mins by Ellman method
Settings: read-out: pIC50 (converted)
Listed molecules paired with reported log10 of IC50
Reported Endpoint: log10 of IC50 (log10 of the value in nM)

[[record]]
smiles_notation = "COC(=O)C1=C(Nc2ccc(Br)cc2)C[C@@H](c2ccc(Cl)cc2)N(c2ccc(Br)cc2)[C@@H]1c1ccc(Cl)cc1"
tested_target = "Acetylcholinesterase (Homo sapiens)"
reported_endpoint = "log10 of IC50"
number = 2.94

[[record]]
smiles_notation = "CCOC(=O)C1=C(Nc2ccc(C)cc2)C[C@@H](c2ccc(Cl)cc2)N(c2ccc(C)cc2)[C@@H]1c1ccc(Cl)cc1"
tested_target = "Acetylcholinesterase (Homo sapiens)"
reported_endpoint = "log10 of IC50"
number = 3.73

[[record]]
smiles_notation = "COC(=O)C1=C(Nc2ccc(F)cc2)C[C@@H](c2ccc(F)cc2)N(c2ccc(F)cc2)[C@@H]1c1ccc(F)cc1"
tested_target = "Acetylcholinesterase (Homo sapiens)"
reported_endpoint = "log10 of IC50"
number = 3.51

[[record]]
smiles_notation = "CCOC(=O)C1=C(Nc2ccccc2)C[C@@H](c2ccccc2)N(c2ccccc2)[C@@H]1c1ccccc1"
tested_target = "Acetylcholinesterase (Homo sapiens)"
reported_endpoint = "log10 of IC50"
number = 3.47

[[record]]
smiles_notation = "CCOC(=O)C1=C(Nc2ccc(C)cc2)C[C@@H](c2ccccc2)N(c2ccc(C)cc2)[C@@H]1c1ccccc1"
tested_target = "Acetylcholinesterase (Homo sapiens)"
reported_endpoint = "log10 of IC50"
number = 3.71

[[record]]
smiles_notation = "CCOC(=O)C1=C(Nc2ccccc2)C[C@@H](c2ccc(F)cc2)N(c2ccccc2)[C@@H]1c1ccc(F)cc1"
tested_target = "Acetylcholinesterase (Homo sapiens)"
reported_endpoint = "log10 of IC50"
number = 2.59

[[record]]
smiles_notation = "COC(=O)C1=C(Nc2ccc(Br)cc2)C[C@@H](c2ccc(OC)cc2)N(c2ccc(Br)cc2)[C@@H]1c1ccc(OC)cc1"
tested_target = "Acetylcholinesterase (Homo sapiens)"
reported_endpoint = "log10 of IC50"
number = 3.33


* * *

Listed molecules paired with reported IC50
Molecular target: Acetylcholinesterase (Homo sapiens, UniProt P22303)
Sequence (P22303 whole entry): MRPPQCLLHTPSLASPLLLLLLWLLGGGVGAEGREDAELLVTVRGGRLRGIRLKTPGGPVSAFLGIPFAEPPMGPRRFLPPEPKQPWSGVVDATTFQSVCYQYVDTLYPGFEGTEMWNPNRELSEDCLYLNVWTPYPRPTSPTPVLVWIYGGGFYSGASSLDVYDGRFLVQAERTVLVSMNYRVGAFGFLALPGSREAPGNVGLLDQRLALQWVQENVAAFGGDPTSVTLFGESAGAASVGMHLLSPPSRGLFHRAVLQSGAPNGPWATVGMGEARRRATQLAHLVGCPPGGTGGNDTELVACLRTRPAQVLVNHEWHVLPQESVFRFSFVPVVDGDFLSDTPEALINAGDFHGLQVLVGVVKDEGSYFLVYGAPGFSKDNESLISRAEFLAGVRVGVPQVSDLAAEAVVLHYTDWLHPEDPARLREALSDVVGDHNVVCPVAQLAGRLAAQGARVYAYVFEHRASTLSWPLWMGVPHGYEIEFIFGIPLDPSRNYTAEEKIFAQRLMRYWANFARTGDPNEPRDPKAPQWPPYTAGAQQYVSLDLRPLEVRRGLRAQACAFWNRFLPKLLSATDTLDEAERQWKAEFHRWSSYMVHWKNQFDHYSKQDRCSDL
Test: Inhibition of human acetylcholinesterase using ATCI/DTNB as substrate preincubated for 30 mins followed by substrate addition measured for 60 mins by Ellman method
Conditions: read-out: pIC50 (converted)
Reported Endpoint: IC50 (µM)

[[record]]
smiles_notation = "COC(=O)C1=C(Nc2ccc(Cl)cc2)C[C@@H](c2ccc(C)cc2)N(c2ccc(Cl)cc2)[C@@H]1c1ccc(C)cc1"
unit_name = "µM"
number = 2.15

[[record]]
smiles_notation = "COC(=O)C1=C(Nc2ccc(C)cc2)C[C@@H](c2ccc(C)cc2)N(c2ccc(C)cc2)[C@@H]1c1ccc(C)cc1"
unit_name = "µM"
number = 6.78

[[record]]
smiles_notation = "COC(=O)C1=C(Nc2ccc(F)cc2)C[C@@H](c2ccccc2)N(c2ccc(F)cc2)[C@@H]1c1ccccc1"
unit_name = "µM"
number = 15.1

[[record]]
smiles_notation = "COC(=O)C1=C(Nc2ccccc2)C[C@@H](c2ccccc2)N(c2ccccc2)[C@@H]1c1ccccc1"
unit_name = "µM"
number = 6.52

[[record]]
smiles_notation = "COC(=O)C1=C(Nc2ccccc2)C[C@@H](c2ccc(C)cc2)N(c2ccccc2)[C@@H]1c1ccc(C)cc1"
unit_name = "µM"
number = 5.73

[[record]]
smiles_notation = "CCOC(=O)C1=C(Nc2ccccc2)C[C@@H](c2ccc(C)cc2)N(c2ccccc2)[C@@H]1c1ccc(C)cc1"
unit_name = "µM"
number = 5.58

[[record]]
smiles_notation = "COC(=O)C1=C(Nc2ccc(OC)cc2)C[C@@H](c2ccc(C)cc2)N(c2ccc(OC)cc2)[C@@H]1c1ccc(C)cc1"
unit_name = "µM"
number = 5.83

[[record]]
smiles_notation = "CC(C)(C)OC(=O)C1=C(Nc2ccccc2)C[C@@H](c2ccccc2)N(c2ccccc2)[C@@H]1c1ccccc1"
unit_name = "µM"
number = 2.79

[[record]]
smiles_notation = "COC(=O)C1=C(Nc2ccccc2)C[C@@H](c2ccc3c(c2)OCO3)N(c2ccccc2)[C@@H]1c1ccc2c(c1)OCO2"
unit_name = "µM"
number = 0.511

[[record]]
smiles_notation = "CCOC(=O)C1=C(Nc2ccc(OC)cc2)C[C@@H](c2ccccc2)N(c2ccc(OC)cc2)[C@@H]1c1ccccc1"
unit_name = "µM"
number = 2.25


* * *

Molecular target: UniProt P22303
Experiment: Inhibition of human acetylcholinesterase using ATCI/DTNB as substrate preincubated for 30 mins followed by substrate addition measured for 60 mins by Ellman method
Conditions: read-out: pIC50 (converted)
Listed compounds paired with reported log10 IC50
Reported Endpoint: log10 IC50 (log10 of the value in nM)

[[record]]
smiles_notation = "CCOC(=O)C1=C(Nc2ccc(OC)cc2)C[C@@H](c2ccc(C)cc2)N(c2ccc(OC)cc2)[C@@H]1c1ccc(C)cc1"
reported_endpoint = "log10 IC50"
number = 3.70

[[record]]
smiles_notation = "COC(=O)C1=C(Nc2ccc(Br)cc2)C[C@@H](c2ccc(C)cc2)N(c2ccc(Br)cc2)[C@@H]1c1ccc(C)cc1"
reported_endpoint = "log10 IC50"
number = 3.39

[[record]]
smiles_notation = "COC(=O)C1=C(Nc2ccc(Cl)cc2)C[C@@H](c2ccc(F)cc2)N(c2ccc(Cl)cc2)[C@@H]1c1ccc(F)cc1"
reported_endpoint = "log10 IC50"
number = 2.85

[[record]]
smiles_notation = "CCOC(=O)C1=C(Nc2ccc(Cl)cc2)C[C@@H](c2ccccc2)N(c2ccc(Cl)cc2)[C@@H]1c1ccccc1"
reported_endpoint = "log10 IC50"
number = 3.66

[[record]]
smiles_notation = "CCOC(=O)C1=C(Nc2ccc(F)cc2)C[C@@H](c2ccc(Cl)cc2)N(c2ccc(F)cc2)[C@@H]1c1ccc(Cl)cc1"
reported_endpoint = "log10 IC50"
number = 2.74

[[record]]
smiles_notation = "CCOC(=O)C1=C(Nc2ccc(Cl)cc2)C[C@@H](c2ccc(OC)cc2)N(c2ccc(Cl)cc2)[C@@H]1c1ccc(OC)cc1"
reported_endpoint = "log10 IC50"
number = 2.58

[[record]]
smiles_notation = "COC(=O)C1=C(Nc2ccccc2)C[C@@H](c2ccc(Cl)cc2)N(c2ccccc2)[C@@H]1c1ccc(Cl)cc1"
reported_endpoint = "log10 IC50"
number = 2.94


* * *

Molecular target: Acetylcholinesterase (Homo sapiens)
Assay: Inhibition of human acetylcholinesterase using ATCI/DTNB as substrate preincubated for 30 mins followed by substrate addition measured for 60 mins by Ellman method
Conditions: read-out: IC50
pIC50: −log10 of the molar value.
Reported Endpoint: pIC50

[[record]]
smiles_notation = "COC(=O)C1=C(Nc2ccccc2)C[C@@H](c2ccc3c(c2)OCO3)N(c2ccccc2)[C@@H]1c1ccc2c(c1)OCO2"
reported_endpoint = "pIC50"
number = 2.49

